system: MOLT-4 leukemia; assay: NCI-60 one-dose screen, 48 h; conditions: 10 µM unless noted
Compounds without any hit were thinned out: in the full panel of roughly 83,000, 20% have a hit. Calls of active or inactive are those of the source. The calls were made as follows: active = growth percent below 10; inactive = the rest.
Possible outcomes: active, inactive

{"columns": ["Molecule", "Class"],
 "data": [
  ["COC(=O)c1cc2c(n1Cc1ccccc1)-c1oncc1CCC2", "inactive"],
  ["NC1(N2SC(S)=C3CCCC=C32)CCCCC1", "inactive"],
  ["N#CC(C#N)=Cc1c(-c2ccccc2)[nH]c2ccccc12", "inactive"],
  ["O=C(Nc1ccc(Br)cc1F)c1cc(Cl)ccc1O", "active"],
  ["COc1cc(C(C)n2cc(-c3ccccc3)nn2)ccc1OC1CCCC1 (stereo unspecified)", "inactive"],
  ["Nc1nc2c(ncn2[C@@H]2O[C@H](CS)[C@@H](O)[C@H]2O)c(=O)[nH]1", "inactive"],
  ["O=c1[nH]nnc2c1ncn2C1OC(CO)C(O)C1O (stereo unspecified)", "inactive"],
  ["CN1CCN(Cc2ccc(NC(=O)c3[nH]ncc3Nc3cc(OC4CCCC4)ncn3)cc2)CC1", "active"],
  ["O=C1Nc2ccccc2/C1=C/c1cccs1", "inactive"],
  ["C1CCN(c2nc(N3CCCCC3)nc(N3CCOCC3)n2)CC1", "inactive"],
  ["COc1ccc(/C=C2\\N=C(c3ccccc3)N(c3ccc(-c4nc5ccc(C)cc5s4)cc3)C2=O)cc1", "inactive"]
]}
